experimentDescription: Confirmatory qHTS for Identification of Small Molecule Activators of Huntingtin-Antisense Promoter Activity
conditionNotes: HEK293 HTT-AS promoter firefly luciferase reporter, 24 h; series mostly up to 57.5 µM
Calls of active or inactive are those of the source. Calls follow the shape of the dose curve; as a rule, active = well fitted activation curve with a large enough effect; inconclusive = small, poorly fitted or top-dose-only effect; inactive = no such curve, though single readings can be large or run the other way.
Classes used: active, inactive

| molecule | qualitativeLabel |
| --- | --- |
| COc1ccc(OC)c(CCNC(=O)C(C)n2nc(C)c3c(C)n(-c4ccc(C)cc4)nc3c2=O)c1 (stereo not given) | inactive |
| Cc1ccc(CCNC(=O)C(C)n2nc(C)c3c(C)n(-c4ccc(C)cc4)nc3c2=O)cc1 (stereo not given) | inactive |
| O=C(CSc1nc(-c2ccc(F)cc2)[nH]c1-c1ccccc1)Nc1ccccc1 | inactive |
| Cc1cccc(NC(=O)c2ccc(F)c(S(=O)(=O)N(C)C3CCCCC3)c2)c1 | inactive |
| O=C1CCCc2cc(S(=O)(=O)NCC3CCC(C(=O)Nc4ccc(Cl)cc4)CC3)ccc2N1 (stereo not given) | inactive |
| CCOC(=O)C1CCCN(S(=O)(=O)c2ccc3c(c2)CCCN3C(C)=O)C1 (stereo not given) | inactive |
| COc1ccc(C(=O)Nc2cccc(-c3cn4ccsc4n3)c2)c(OC)c1 | active |
| O=C(NCC(c1cccnc1)N1CCN(Cc2ccccc2)CC1)C(=O)Nc1ccc(Cl)cc1 (stereo not given) | inactive |
| CCCCN1CC(c2nc3ccccc3n2CCCCOc2ccc(C)c(C)c2)CC1=O (stereo not given) | inactive |
| O=C(COCc1cc(-c2cccs2)on1)N1CCN(c2cccc(Cl)c2)CC1 | inactive |
| CCc1ccc(NC(=O)c2cc(S(=O)(=O)N3CCCCCC3)ccc2F)cc1 | inactive |
| CC(=O)N1CCCc2cc(S(=O)(=O)N3CCN(c4ccccc4F)CC3)ccc21 | inactive |
| COc1ccc(S(=O)(=O)Nc2cc3c(C(=O)OC(C)C)c(C)oc3c3ccccc23)cc1 | inactive |
| Cc1oc(-c2ccc(C(=O)NCc3ccccc3F)cc2)nc1COc1ccccc1 | inactive |
| Cc1ccc(C)c(N2CCN(C(=O)Cn3cnc4nc5c(cc4c3=O)CCCC5)CC2)c1 | inactive |
| COc1ccc(CC(=O)Nc2ccc(-c3nc4ccccc4s3)cc2Cl)cc1OC | inactive |
| Cn1c(=O)c2sccc2n2c(CCCC(=O)Nc3ccc(Oc4ccc(Cl)cc4)cc3)nnc12 | inactive |
| CCCNc1nc(NCc2ccccc2OC)c2cnn(C)c2n1 | inactive |
| Cc1cccc(Cn2c(SCc3ccc(C(=O)N4CCC(C)CC4)cc3)nc3ccncc32)c1 | inactive |
| Cc1ccc(NS(=O)(=O)c2ccc(-c3cnc(C4CC4)o3)cc2)cc1N(C)C | inactive |
| Cc1nc(-c2ccc(S(=O)(=O)Nc3ccc(C)c(N(C)C)c3)cc2)co1 | inactive |
| Cc1ccc(Cl)cc1-n1ncc2c(NCCCc3ccccc3)ncnc21 | inactive |
| CCc1ccc(CNC(=O)c2cc3cc(S(=O)(=O)N4CCCCC4)ccc3n2C)cc1 | inactive |
| O=C(Cn1cc(S(=O)(=O)Cc2ccccc2F)c2ccccc21)Nc1ccc(F)c(Cl)c1 | inactive |
| COc1ccc(Cl)cc1C1CC(=O)Nc2cc3c(cc21)OCCO3 (stereo not given) | inactive |
| CCOC(=O)C1=C(CN2CCN(c3ccc(OC)cc3)CC2)NC(=O)NC1c1ccc(OC)cc1 (stereo not given) | inactive |
| Cc1oc(-c2ccc(C(=O)NCc3ccccc3Cl)cc2)nc1CN1CCc2ccccc21 | inactive |
| COc1ccc(S(=O)(=O)c2cc3cc(C(C)(C)C)cc(O)c3oc2=O)cc1 | inactive |
| Cc1nc(-c2ccc(Cl)cc2)sc1CCNC(=O)Cc1ccc(F)cc1 | inactive |
| Cc1ccc(S(=O)(=O)C(CNC(=O)C(=O)NCCc2ccc(F)cc2)c2cccs2)cc1 (stereo not given) | inactive |
| COc1cc(C2C(C(=O)Nc3ccccc3C)=C(C)Nc3nc(SCc4cc(C)ccc4C)nn32)ccc1O (stereo not given) | inactive |
| COc1ccc(S(=O)(=O)NCCc2sc3nc(-c4ccc(C)cc4)nn3c2C)cc1F | inactive |
| Cc1cccc(NC(=O)Cc2ccc(-n3c(C)nc4cccnc43)cc2)c1C | inactive |
| CCOC(=O)c1cc2c(=O)n3ccccc3nc2n(CC2CCCO2)c1=NC(=O)c1cc(C)cc(C)c1 (stereo not given) | inactive |
| Cn1cnc(S(=O)(=O)N2CCC(C(=O)Nc3ccc(Cl)c(C(F)(F)F)c3)CC2)c1 | inactive |
| CCOc1ccc(NCc2cccn2-c2nnc(N3CCC(C(=O)NCCc4ccc(OC)c(OC)c4)CC3)s2)cc1 | inactive |
| COc1cc(CN(C(=O)COc2ccc(C)cc2)c2ccccn2)cc(OC)c1OC | inactive |
| O=C(NCCC1=CCCCC1)c1ccc2c(c1)N(Cc1cccc(Cl)c1)C(=O)c1ccccc1S2(=O)=O | inactive |
| Cc1ccc(-c2cc(N)n(Cc3cccc(Cl)c3)n2)cc1 | inactive |
| CCn1c(CN2CCCCC2)nc2cc(NC(=O)c3ccc([N+](=O)[O-])cc3)ccc21 | inactive |
